Entries and their measured t1/2 follow.
TESTED TARGET: T1, in-line fusion protein of human IL-36R extracellular domain and IL1RAcP extracellular domain expressed with … (human; mouse, UniProt Q9HB29 20-337; Q9NPH3 21-359, limits assumed)
T1 construct: not shown: mouse IgG2a Fc
T1 sequence (looked up): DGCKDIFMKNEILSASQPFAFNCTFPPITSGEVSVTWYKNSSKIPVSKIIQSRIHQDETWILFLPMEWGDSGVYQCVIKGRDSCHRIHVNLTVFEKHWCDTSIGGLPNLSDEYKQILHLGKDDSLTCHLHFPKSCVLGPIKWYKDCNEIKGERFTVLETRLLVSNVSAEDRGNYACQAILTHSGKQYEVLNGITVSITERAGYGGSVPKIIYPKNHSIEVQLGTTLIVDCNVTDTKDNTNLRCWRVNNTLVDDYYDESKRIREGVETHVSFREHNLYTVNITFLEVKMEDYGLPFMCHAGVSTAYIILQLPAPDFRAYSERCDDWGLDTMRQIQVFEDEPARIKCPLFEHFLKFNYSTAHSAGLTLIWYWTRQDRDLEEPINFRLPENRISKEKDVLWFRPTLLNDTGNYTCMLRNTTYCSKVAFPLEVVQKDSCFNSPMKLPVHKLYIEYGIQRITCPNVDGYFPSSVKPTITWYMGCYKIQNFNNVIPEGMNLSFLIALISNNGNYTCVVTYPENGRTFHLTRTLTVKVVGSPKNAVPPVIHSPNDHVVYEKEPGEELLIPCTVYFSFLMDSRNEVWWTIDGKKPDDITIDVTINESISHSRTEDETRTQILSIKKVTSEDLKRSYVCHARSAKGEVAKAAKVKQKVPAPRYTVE
ASSAY DETAILS: SPR Biacore 4000, mAb captured on anti-hFc, 25C
QUANTITY KIND: t1/2 (h)

[[record]]
binder = "H4H14728P (antibody, human IgG4 S228P, kappa, V domains shown, Fully human anti-IL-36R antibody) VH: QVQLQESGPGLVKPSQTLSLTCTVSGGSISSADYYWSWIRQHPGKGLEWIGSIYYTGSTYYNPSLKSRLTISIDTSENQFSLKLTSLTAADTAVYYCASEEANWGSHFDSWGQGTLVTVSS VL: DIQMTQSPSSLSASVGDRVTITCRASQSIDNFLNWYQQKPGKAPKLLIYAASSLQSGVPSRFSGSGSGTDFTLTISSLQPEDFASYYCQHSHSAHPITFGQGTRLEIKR"
quantity_kind = "t1/2"
units_symbol = "h"
readout_value = 0.333

[[record]]
binder = "H4H14709P (antibody, human IgG4 S228P, kappa, V domains shown, Fully human anti-IL-36R antibody) VH: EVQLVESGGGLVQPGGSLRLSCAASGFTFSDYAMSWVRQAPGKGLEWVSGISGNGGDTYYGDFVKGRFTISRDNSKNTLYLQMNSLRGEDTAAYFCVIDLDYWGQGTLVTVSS VL: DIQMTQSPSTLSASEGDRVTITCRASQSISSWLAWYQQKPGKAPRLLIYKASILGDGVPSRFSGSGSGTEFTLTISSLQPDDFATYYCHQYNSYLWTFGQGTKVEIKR"
quantity_kind = "t1/2"
units_symbol = "h"
readout_value = 2.38

[[record]]
binder = "H4H14708P2 (antibody, human IgG4 S228P, kappa, V domains shown, Fully human anti-IL-36R antibody) VH: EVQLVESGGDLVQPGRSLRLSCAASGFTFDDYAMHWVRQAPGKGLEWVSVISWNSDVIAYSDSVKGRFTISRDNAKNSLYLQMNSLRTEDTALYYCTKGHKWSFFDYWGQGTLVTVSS VL: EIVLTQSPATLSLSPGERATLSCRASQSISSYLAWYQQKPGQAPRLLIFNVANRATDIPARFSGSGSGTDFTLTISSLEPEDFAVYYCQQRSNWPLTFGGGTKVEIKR"
quantity_kind = "t1/2"
units_symbol = "h"
readout_value = 1.5

[[record]]
binder = "H4H14706P2 (antibody, human IgG4 S228P, kappa, V domains shown, Fully human anti-IL-36R antibody) VH: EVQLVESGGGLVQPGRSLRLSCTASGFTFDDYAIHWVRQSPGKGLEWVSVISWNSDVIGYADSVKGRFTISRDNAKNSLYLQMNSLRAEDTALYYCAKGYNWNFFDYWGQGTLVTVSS VL: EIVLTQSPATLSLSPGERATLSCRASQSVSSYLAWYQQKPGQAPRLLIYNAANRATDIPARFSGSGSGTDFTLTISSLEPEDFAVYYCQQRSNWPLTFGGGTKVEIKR"
quantity_kind = "t1/2"
units_symbol = "h"
readout_value = 1.75

